These measurements were taken from ChEMBL document CHEMBL1133173.

- Assayed Target: Integrin alpha-V/beta-3 (Homo sapiens, UniProt P05106+P06756)
- Sequence (P05106 27-788 limits assumed): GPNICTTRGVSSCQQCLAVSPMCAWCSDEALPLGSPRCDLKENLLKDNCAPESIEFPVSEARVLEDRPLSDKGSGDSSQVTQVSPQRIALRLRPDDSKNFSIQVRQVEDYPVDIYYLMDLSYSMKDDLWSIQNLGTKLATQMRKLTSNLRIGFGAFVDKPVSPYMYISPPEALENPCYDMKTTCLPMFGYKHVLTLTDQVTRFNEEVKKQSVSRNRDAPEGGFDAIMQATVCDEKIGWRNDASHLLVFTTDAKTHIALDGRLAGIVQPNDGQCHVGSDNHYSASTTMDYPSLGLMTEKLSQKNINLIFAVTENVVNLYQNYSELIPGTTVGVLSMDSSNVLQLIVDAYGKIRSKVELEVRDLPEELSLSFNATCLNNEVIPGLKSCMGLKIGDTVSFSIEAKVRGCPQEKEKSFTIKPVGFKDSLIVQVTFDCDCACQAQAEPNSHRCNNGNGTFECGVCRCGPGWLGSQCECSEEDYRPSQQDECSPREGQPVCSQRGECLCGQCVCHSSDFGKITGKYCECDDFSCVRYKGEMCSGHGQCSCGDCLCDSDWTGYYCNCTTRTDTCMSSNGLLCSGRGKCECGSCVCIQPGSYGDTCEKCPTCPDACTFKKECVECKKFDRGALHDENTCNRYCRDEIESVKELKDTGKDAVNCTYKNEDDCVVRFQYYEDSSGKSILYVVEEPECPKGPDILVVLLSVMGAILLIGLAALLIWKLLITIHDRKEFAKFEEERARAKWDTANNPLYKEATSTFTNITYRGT
- Sequence (P06756 31-889 limits assumed): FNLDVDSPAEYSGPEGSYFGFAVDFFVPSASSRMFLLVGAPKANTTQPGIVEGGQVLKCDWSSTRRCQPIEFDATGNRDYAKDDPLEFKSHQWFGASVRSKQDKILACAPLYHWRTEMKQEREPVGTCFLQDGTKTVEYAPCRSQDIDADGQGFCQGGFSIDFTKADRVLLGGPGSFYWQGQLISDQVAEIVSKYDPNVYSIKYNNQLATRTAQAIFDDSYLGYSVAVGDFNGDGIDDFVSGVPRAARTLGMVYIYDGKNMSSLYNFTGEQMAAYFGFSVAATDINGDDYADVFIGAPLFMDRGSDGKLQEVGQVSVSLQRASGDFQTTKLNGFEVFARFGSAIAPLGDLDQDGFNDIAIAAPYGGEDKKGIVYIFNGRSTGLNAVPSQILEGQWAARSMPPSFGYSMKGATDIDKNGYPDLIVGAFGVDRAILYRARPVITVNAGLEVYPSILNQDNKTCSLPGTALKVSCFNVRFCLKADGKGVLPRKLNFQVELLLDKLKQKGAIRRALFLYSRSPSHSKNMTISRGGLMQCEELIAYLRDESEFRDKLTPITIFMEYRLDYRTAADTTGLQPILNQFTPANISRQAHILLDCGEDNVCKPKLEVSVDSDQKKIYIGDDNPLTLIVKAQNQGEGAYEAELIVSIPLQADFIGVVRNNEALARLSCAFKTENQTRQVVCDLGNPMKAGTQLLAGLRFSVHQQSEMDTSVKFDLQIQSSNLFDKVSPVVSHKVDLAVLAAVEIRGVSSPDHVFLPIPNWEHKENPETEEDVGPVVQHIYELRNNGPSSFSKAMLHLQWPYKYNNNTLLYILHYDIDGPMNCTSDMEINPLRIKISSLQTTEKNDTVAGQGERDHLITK
- Sequence (P06756 891-1048 limits assumed): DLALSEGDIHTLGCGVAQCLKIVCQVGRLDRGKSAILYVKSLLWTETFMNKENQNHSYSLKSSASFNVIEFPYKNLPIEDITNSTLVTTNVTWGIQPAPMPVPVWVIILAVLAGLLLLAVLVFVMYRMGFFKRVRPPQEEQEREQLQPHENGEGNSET
- Assay Comment: Inhibition of vitronectin receptor (alpha V beta 3), expressed on human 293 cells, binding to immobilized fibrinogen
pIC50: −log10 of the molar value.
Quantity Measured: pIC50

P. O=C(NC[C@H](NS(=O)(=O)c1c(Cl)cccc1Cl)C(=O)O)C1=NOC(CCCCNc2ncc[nH]2)C1 (some centres undefined)
Q. Cc1cc(C)c(S(=O)(=O)N[C@@H](CNC(=O)C2=NOC(CCCC(=O)Nc3ncc[nH]3)C2)C(=O)O)c(C)c1 (some centres undefined)
R. O=C(NC[C@H](NS(=O)(=O)c1c(Cl)cc(-c2ccccc2)cc1Cl)C(=O)O)C1=NOC(CCCCNc2ncc[nH]2)C1 (some centres undefined)
Exercise: Give the descending pIC50 ranking for the 3 compounds listed above. Put the labels in the requested order and list them out.
Key: R, P, Q
